target: DLG4_1, P78352; experiment: holdup assay; parameters: key: below the threshold = too weak to quantify, mostly under pKd 3.1 to 4; settings: plain residues with an end cap or a label only (N-terminal biotin on a linker: ahx)
Sequence (P78352 62-152): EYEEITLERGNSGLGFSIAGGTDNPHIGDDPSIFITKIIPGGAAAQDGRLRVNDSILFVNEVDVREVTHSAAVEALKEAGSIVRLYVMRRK
Assign Met whenever pKd does not fall below 4; assign Not met whenever it does.

HSATSVHTSV [MTMR1, Q13613] = Met

Does pKd meet or surpass 4 for YNSFLSVTTV [PDZRN3, Q9UPQ7] ?
Not met

hey, is pKd for this one >= 4? AKPQPVDSWV [ARVCF, O00192]
Met

Is reported pKd greater than or equal to 4 here: ADENEQVSAV [RAPGEF6, Q8TEU7]
Not met
